Target: recombinant HDAC1 (Homo sapiens)
Sequence (Q13547 whole entry, species assumed): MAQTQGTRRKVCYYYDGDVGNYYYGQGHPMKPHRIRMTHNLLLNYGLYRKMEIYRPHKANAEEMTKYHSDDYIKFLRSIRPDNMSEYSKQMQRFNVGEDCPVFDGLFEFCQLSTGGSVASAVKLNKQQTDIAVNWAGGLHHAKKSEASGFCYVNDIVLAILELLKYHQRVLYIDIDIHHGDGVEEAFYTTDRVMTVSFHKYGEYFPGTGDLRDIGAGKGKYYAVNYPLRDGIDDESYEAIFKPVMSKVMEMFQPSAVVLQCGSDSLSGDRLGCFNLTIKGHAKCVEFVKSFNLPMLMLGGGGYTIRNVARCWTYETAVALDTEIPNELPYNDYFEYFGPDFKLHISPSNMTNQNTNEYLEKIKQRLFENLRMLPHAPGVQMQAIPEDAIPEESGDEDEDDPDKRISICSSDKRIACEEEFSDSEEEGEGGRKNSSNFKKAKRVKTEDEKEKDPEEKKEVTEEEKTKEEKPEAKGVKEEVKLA
Test: In vitro inhibition of recombinant HDAC1 (Fluor de Lys)
Conditions: read-out: concentration giving 50% reduction of HDAC activity
pIC50: −log10 of the molar value.
measurementLabel: pIC50

*Q* Give reported pIC50 for O=C(C=CC1CCCCC1)NO [Compound 3, 3-Cyclohexyl-N-hydroxy-acrylamide] (recombinant HDAC1 (Homo sapiens))
*A* 6.40 to 6.52

###

Tested on: human tumor cell lines of breast, colon, pancreas and prostate origin
Test: Growth inhibition of tumor cell lines (SRB assay)
Assay type: cell-based
Settings: various cancer cell lines, 72 hours, read-out: concentrations inducing 50% growth arrest (IC50), range over cell lines
pIC50: −log10 of the molar value.
Recorded pIC50 for the following molecules

*Q* Input O=C(C=CC1CCCCC1)NO [Compound 3, 3-Cyclohexyl-N-hydroxy-acrylamide] , output reported pIC50.
*A* 5.10 to 6.30

*Q* // fetch pIC50 given entry O=C(CCC1CCCCC1)NO [Compound 2, 3-Cyclohexyl-N-hydroxy-propionamide]
*A* 4.59 to 5.30

*Q* Retrieve pIC50 measured for O=C(CCC1CCCC1)NO [Compound 1, 3-Cyclopentyl-N-hydroxy-propionamide] and print it.
*A* 4.15 to 5.10

###

Target: recombinant HDAC8 (Homo sapiens, UniProt Q9BY41)
Sequence (Q9BY41 1-377): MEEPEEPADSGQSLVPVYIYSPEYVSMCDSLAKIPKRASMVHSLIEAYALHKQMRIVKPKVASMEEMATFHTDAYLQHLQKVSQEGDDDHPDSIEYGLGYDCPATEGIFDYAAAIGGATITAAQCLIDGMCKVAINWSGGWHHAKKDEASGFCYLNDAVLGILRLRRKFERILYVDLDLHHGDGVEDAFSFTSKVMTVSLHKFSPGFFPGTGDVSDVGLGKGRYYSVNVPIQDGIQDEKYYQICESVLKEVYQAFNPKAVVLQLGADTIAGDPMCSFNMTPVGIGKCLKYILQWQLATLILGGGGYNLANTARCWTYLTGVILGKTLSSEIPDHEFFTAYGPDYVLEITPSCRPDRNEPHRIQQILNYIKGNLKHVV
Experiment: In vitro inhibition of recombinant HDAC8 (Fluor de Lys)
Details: read-out: concentration giving 50% reduction of HDAC activity
measurementLabel: IC50

*Q* State IC50 (recombinant HDAC8 (Homo sapiens, UniProt Q9BY41)) of O=C(C=CC1CCCCC1)NO [Compound 3, 3-Cyclohexyl-N-hydroxy-acrylamide] .
*A* 300 to 400 nM

###

Biological target: recombinant HDAC6 (Homo sapiens)
Sequence (Q9UBN7 whole entry, species assumed): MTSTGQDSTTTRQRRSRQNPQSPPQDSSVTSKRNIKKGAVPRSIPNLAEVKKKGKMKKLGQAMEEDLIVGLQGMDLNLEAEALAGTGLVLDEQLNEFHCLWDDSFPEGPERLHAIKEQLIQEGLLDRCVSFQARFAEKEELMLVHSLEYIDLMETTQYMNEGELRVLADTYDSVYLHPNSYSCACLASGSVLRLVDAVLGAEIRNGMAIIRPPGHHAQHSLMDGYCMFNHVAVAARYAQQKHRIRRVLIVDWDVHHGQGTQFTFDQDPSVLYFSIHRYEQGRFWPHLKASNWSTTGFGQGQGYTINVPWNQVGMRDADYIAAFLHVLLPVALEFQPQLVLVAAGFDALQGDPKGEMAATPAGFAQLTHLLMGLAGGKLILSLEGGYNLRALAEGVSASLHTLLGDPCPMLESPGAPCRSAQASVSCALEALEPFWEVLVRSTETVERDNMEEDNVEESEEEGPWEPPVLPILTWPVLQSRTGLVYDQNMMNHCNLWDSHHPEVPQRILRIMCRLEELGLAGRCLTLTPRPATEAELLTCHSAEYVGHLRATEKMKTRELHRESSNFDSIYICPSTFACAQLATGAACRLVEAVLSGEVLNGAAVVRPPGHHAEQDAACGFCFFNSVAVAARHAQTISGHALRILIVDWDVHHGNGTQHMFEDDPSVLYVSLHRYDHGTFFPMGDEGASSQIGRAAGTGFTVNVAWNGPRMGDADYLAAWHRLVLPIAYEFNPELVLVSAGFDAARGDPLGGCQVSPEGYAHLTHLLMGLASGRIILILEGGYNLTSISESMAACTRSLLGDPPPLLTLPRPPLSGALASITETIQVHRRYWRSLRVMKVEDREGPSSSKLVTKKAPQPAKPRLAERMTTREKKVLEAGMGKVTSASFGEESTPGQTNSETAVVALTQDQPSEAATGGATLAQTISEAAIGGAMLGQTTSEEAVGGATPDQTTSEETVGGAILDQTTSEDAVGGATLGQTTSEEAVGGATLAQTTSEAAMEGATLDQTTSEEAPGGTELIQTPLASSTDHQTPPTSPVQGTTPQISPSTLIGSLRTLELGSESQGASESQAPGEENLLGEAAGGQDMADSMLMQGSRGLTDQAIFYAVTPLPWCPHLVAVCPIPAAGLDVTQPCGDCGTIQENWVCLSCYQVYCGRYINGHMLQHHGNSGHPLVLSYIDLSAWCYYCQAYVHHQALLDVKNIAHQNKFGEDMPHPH
Assay: In vitro inhibition of recombinant HDAC6 (Fluor de Lys)
Details: read-out: concentration giving 50% reduction of HDAC activity
measurementLabel: IC50

*Q* Name the recorded IC50 of the item O=C(C=CC1CCCCC1)NO [Compound 3, 3-Cyclohexyl-N-hydroxy-acrylamide] in your answer.
*A* 300 to 400 nM
